The origin of these recorded values is the Immune Epitope Database (IEDB).

assayed_system: HLA-A*31:01
protocol_text: IEDB peptide-MHC binding, purified MHC/competitive/radioactivity; filed as Kd, often an IC50 or EC50 that approximates it; bounds were set here for any values at or beyond the usual limits of such assays
condition_context: source organism: Mammarenavirus machupoense
pKd: −log10 of the molar value.
recorded_endpoint: pKd

Entry SDGTFKIGLH , pKd reported as ≤ 4.44

----------
assayed_system: HLA-B*08:01
protocol_text: IEDB peptide-MHC binding, purified MHC/direct/fluorescence; filed as Kd, often an IC50 or EC50 that approximates it; bounds were set here for any values at or beyond the usual limits of such assays
condition_context: source organism: Vibrio cholerae
recorded_endpoint: Kd

Entry DSDPMDGCE , Kd reported as ≥ 20 µM

----------
assayed_system: HLA-C*14:02
protocol_text: IEDB peptide-MHC binding, purified MHC/direct/fluorescence; filed as Kd, often an IC50 or EC50 that approximates it; bounds were set here for any values at or beyond the usual limits of such assays
condition_context: source organism: Clostridium botulinum A str. ATCC 3502
pKd: −log10 of the molar value.
recorded_endpoint: pKd

Entry YMIGYTAYY , pKd reported as ≥ 9.00

----------
assayed_system: HLA-B*40:02
protocol_text: IEDB peptide-MHC binding, purified MHC/competitive/radioactivity; filed as Kd, often an IC50 or EC50 that approximates it; bounds were set here for any values at or beyond the usual limits of such assays
condition_context: source organism: Lymphocytic choriomeningitis virus (strain Armstrong)
Entries annotated with measured pKd
# reply with the number alone; pKd is -log10 of concentration in mol/L

polymer_sequence | assayed_system | pKd
LDVLCLSSL | HLA-B*40:02 | 7.36

// switching to the query sequence
Entry REAVESCPLM , pKd reported as 8.01

----------
assayed_system: HLA-A*02:19
protocol_text: IEDB peptide-MHC binding, purified MHC/direct/fluorescence; filed as Kd, often an IC50 or EC50 that approximates it; bounds were set here for any values at or beyond the usual limits of such assays
condition_context: source organism: Francisella tularensis subsp. tularensis FSC033
recorded_endpoint: pKd
# reply with the number alone; pKd is -log10 of concentration in mol/L

Entry YMYQYIQEL , pKd reported as 8.70

----------
assayed_system: HLA-B*18:01
protocol_text: IEDB peptide-MHC binding, purified MHC/competitive/fluorescence; filed as Kd, often an IC50 or EC50 that approximates it; bounds were set here for any values at or beyond the usual limits of such assays
condition_context: source organism: Homo sapiens
pKd: −log10 of the molar value.
recorded_endpoint: pKd

Entry KQMEDGHTL , pKd reported as ≤ 4.70

----------
assayed_system: HLA-B*08:03
protocol_text: IEDB peptide-MHC binding, purified MHC/direct/fluorescence; filed as Kd, often an IC50 or EC50 that approximates it; bounds were set here for any values at or beyond the usual limits of such assays
condition_context: source organism: Mycobacterium tuberculosis str. Haarlem
recorded_endpoint: Kd

Entry AVFDSFVER , Kd reported as ≥ 20 µM

----------
assayed_system: HLA-A*31:01
protocol_text: IEDB peptide-MHC binding, purified MHC/direct/fluorescence; filed as Kd, often an IC50 or EC50 that approximates it; bounds were set here for any values at or beyond the usual limits of such assays
condition_context: source organism: Yersinia pestis
recorded_endpoint: Kd

Recorded Kd for SDDQLRLLK on HLA-A*31:01 was ≥ 20 µM

----------
assayed_system: HLA-B*46:01
protocol_text: IEDB peptide-MHC binding, purified MHC/direct/fluorescence; filed as Kd, often an IC50 or EC50 that approximates it; bounds were set here for any values at or beyond the usual limits of such assays
condition_context: source organism: Mycobacterium tuberculosis str. Haarlem
pKd: −log10 of the molar value.
recorded_endpoint: pKd

Entry EILWDVIPF , pKd reported as ≤ 4.70

----------
assayed_system: HLA-B*40:01
protocol_text: IEDB peptide-MHC binding, purified MHC/competitive/fluorescence; filed as Kd, often an IC50 or EC50 that approximates it; bounds were set here for any values at or beyond the usual limits of such assays
condition_context: source organism: Shigella boydii CDC 3083-94
recorded_endpoint: Kd (nM)
API: value field is a number in nM; no unit string.

Entry QEPGIFCAI , Kd reported as 10.5

----------
assayed_system: HLA-B*15:01
protocol_text: IEDB peptide-MHC binding, purified MHC/direct/fluorescence; filed as Kd, often an IC50 or EC50 that approximates it; bounds were set here for any values at or beyond the usual limits of such assays
condition_context: source organism: Influenza A virus (A/Puerto Rico/8/34/Mount Sinai(H1N1))
recorded_endpoint: Kd (µM)
API: value field is a number in µM; no unit string.

Recorded Kd for VSPLAVTWW on HLA-B*15:01 was 2.2

----------
assayed_system: HLA-A*31:01
protocol_text: IEDB peptide-MHC binding, purified MHC/direct/fluorescence; filed as Kd, often an IC50 or EC50 that approximates it; bounds were set here for any values at or beyond the usual limits of such assays
condition_context: source organism: Vibrio cholerae
recorded_endpoint: Kd (nM)
API: value field is a number in nM; no unit string.

Entry RVHGATVFK , Kd reported as 59.5

----------
assayed_system: HLA-A*02:11
protocol_text: IEDB peptide-MHC binding, purified MHC/direct/fluorescence; filed as Kd, often an IC50 or EC50 that approximates it; bounds were set here for any values at or beyond the usual limits of such assays
condition_context: source organism: Choclo virus
recorded_endpoint: Kd

Entry HWMDATFNI , Kd reported as ≥ 20 µM

----------
assayed_system: HLA-A*66:01
protocol_text: IEDB peptide-MHC binding, purified MHC/competitive/fluorescence; filed as Kd, often an IC50 or EC50 that approximates it; bounds were set here for any values at or beyond the usual limits of such assays
condition_context: source organism: Brucella melitensis bv. 1 str. 16M
pKd: −log10 of the molar value.
recorded_endpoint: pKd

Entry TTRAVNMEV , pKd reported as ≤ 5.30

----------
assayed_system: HLA-A*02:02
protocol_text: IEDB peptide-MHC binding, purified MHC/competitive/radioactivity; filed as Kd, often an IC50 or EC50 that approximates it; bounds were set here for any values at or beyond the usual limits of such assays
condition_context: source organism: Vaccinia virus WR
recorded_endpoint: pKd
# reply with the number alone; pKd is -log10 of concentration in mol/L

Please review the following examples before continuing.
polymer_sequence | assay_result
VQYRILPMII | 5.00
IQYRQQLELA | 5.36
FVKKMLPKII | 4.95
KVYNGIFVDT | 6.95
LMIFISSFLL | 8.53
IVAAVIIMAI | 6.14
LQISRVNDL | 7.05
NAVTTNNLL | 5.73
KIYTLIYRQL | 6.15

// switching to the query sequence
Entry RIKSVLDII , pKd reported as 6.95

----------
assayed_system: HLA-A*03:01
protocol_text: IEDB peptide-MHC binding, purified MHC/competitive/radioactivity; filed as Kd, often an IC50 or EC50 that approximates it; bounds were set here for any values at or beyond the usual limits of such assays
condition_context: source organism: Mammarenavirus guanaritoense
recorded_endpoint: Kd

Entry NYVHCFRKPH , Kd reported as ≥ 70 µM

----------
assayed_system: HLA-A*11:01
protocol_text: IEDB peptide-MHC binding, purified MHC/competitive/radioactivity; filed as Kd, often an IC50 or EC50 that approximates it; bounds were set here for any values at or beyond the usual limits of such assays
condition_context: source organism: Triticum aestivum
recorded_endpoint: Kd (nM)
API: value field is a number in nM; no unit string.

Entry VVLQQHSIAY , Kd reported as 1640

----------
assayed_system: HLA-B*48:01
protocol_text: IEDB peptide-MHC binding, purified MHC/competitive/fluorescence; filed as Kd, often an IC50 or EC50 that approximates it; bounds were set here for any values at or beyond the usual limits of such assays
condition_context: source organism: Shigella flexneri 5 str. 8401
recorded_endpoint: Kd (nM)
API: value field is a number in nM; no unit string.

Entry RQQAIVDLL , Kd reported as 153

----------
assayed_system: HLA-A*02:01
protocol_text: IEDB peptide-MHC binding, purified MHC/competitive/fluorescence; filed as Kd, often an IC50 or EC50 that approximates it; bounds were set here for any values at or beyond the usual limits of such assays
condition_context: source organism: Variola virus
Entries annotated with measured pKd
# reply with the number alone; pKd is -log10 of concentration in mol/L

polymer_sequence | assayed_system | recorded_endpoint | assay_result
LIDNPDNNL | HLA-A*02:01 | pKd | 7.11

Entry QLNMEKREV , pKd reported as 6.85

----------
assayed_system: HLA-B*58:01
protocol_text: IEDB peptide-MHC binding, purified MHC/direct/fluorescence; filed as Kd, often an IC50 or EC50 that approximates it; bounds were set here for any values at or beyond the usual limits of such assays
condition_context: source organism: Orthohantavirus dobravaense
recorded_endpoint: Kd

Entry QTSSIEGAW , Kd reported as ≥ 20 µM
